B1: ZNF207 (parent)
chain: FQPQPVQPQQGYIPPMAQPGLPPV

Variants of: B1
Experiment: protein stability index of a GFP-peptide fusion (GPS, HEK-293T) (PSI 1-6); higher = more stable;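 also: lentivirally expressed fusions sorted by FACS into six bins by GFP to DsRed ratio, PSI derived from sequencing read proportions per bin multiplied by bin number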
Conditions: c terminus: a fixed tail appended
Readout name: protein stability index
Response field accepts a number only; no unit should be typed.

See these solved cases before continuing.
FQPQPVQPQQGYIPPMAQPGMPPV    3.68
FQPQPVQPQQGYIPPMAQPGLLPV    2.99
FQPQPVQPQQGYITPMAQPGLPPV    2.75
FQPWPVQPQQGYIPPMAQPGLPPV    1.81
FQPQTVQPQQGYIPPMAQPGLPPV    2.62

protein stability index measured on "FQPQPVQPQQGYIPPMAQPGLPKV" = 2.95

The value of protein stability index measured for the variant "FQPQPVCPQQGYIPPMAQPGLPPV" turned out to be 2.88

Entry "FQPNPVQPQQGYIPPMAQPGLPPV" ; protein stability index = 3.43

The value of protein stability index measured for the variant "FQPQPVQPIQGYIPPMAQPGLPPV" turned out to be 2.89

protein stability index reported for this variant "FQPQPVEPQQGYIPPMAQPGLPPV" : 2.98

In plain terms, "FQPQPVQPQQGYIPMMAQPGLPPV" has a documented protein stability index of 2.62

The variant listed as "FQPQPVQPQQGYIVPMAQPGLPPV" has a reported protein stability index of 2.9

So for "FQPKPVQPQQGYIPPMAQPGLPPV" , the logged protein stability index turned out to be 2.92

For "FQPQPVQPQQGYKPPMAQPGLPPV" the variant record lists protein stability index as 2.85

Lookup result for "FQPQPVQPQQGYIPPMKQPGLPPV" ; measured protein stability index: 3.04
